Every entry's value here was drawn from patent US20200339625A1.

System: mice bearing PSMA-expressing LNCAP cancer xenografts
Assay: Biodistribution of 68Ga-labeled compounds
Assay type: in vivo
Conditions: 3 h post-injection
The entries below are paired with their reported Seminal uptake.
Answer format: numeric, % ID/g implied, no suffix.

(Q) Query Seminal uptake on mice bearing PSMA-expressing LNCAP cancer xenografts for Nc1ccc(CCCC(=O)NCC(=O)N[C@@H](CCCCNC(=O)CN2CCN(CC(=O)[O-])CCN(CC(=O)[O-])CCN(CC(=O)[O-])CC2)C(=O)NC[C@H]2CC[C@H](C(=O)N[C@@H](Cc3ccc4ccccc4c3)C(=O)NCCCC[C@H](NC(=O)N[C@@H](CCC(=O)O)C(=O)O)C(=O)O)CC2)cc1.[68Ga+3] [^68Ga-HTK03087]
(A) 1.44

(Q) Query Seminal uptake on mice bearing PSMA-expressing LNCAP cancer xenografts for COc1ccc(CCCC(=O)NCC(=O)N[C@@H](CCCCNC(=O)CN2CCN(CC(=O)[O-])CCN(CC(=O)[O-])CCN(CC(=O)[O-])CC2)C(=O)NC[C@H]2CC[C@H](C(=O)N[C@@H](Cc3ccc4ccccc4c3)C(=O)NCCCC[C@H](NC(=O)N[C@@H](CCC(=O)O)C(=O)O)C(=O)O)CC2)cc1.[68Ga+3] [^68Ga-HTK03086]
(A) 0.47

(Q) Query Seminal uptake on mice bearing PSMA-expressing LNCAP cancer xenografts for O=C([O-])CN1CCN(CC(=O)[O-])CCN(CC(=O)NCCCC[C@H](NC(=O)CNC(=O)CCCc2ccccc2)C(=O)NC[C@H]2CC[C@H](C(=O)N[C@@H](Cc3ccc4ccccc4c3)C(=O)NCCCC[C@H](NC(=O)N[C@@H](CCC(=O)O)C(=O)O)C(=O)O)CC2)CCN(CC(=O)[O-])CC1.[68Ga+3] [^68Ga-HTK03056]
(A) 0.29
